Molecular target: LDT2 (Mycobacterium abscessus, UniProt B1MMQ4)
Sequence (B1MMQ4 entry or part of it): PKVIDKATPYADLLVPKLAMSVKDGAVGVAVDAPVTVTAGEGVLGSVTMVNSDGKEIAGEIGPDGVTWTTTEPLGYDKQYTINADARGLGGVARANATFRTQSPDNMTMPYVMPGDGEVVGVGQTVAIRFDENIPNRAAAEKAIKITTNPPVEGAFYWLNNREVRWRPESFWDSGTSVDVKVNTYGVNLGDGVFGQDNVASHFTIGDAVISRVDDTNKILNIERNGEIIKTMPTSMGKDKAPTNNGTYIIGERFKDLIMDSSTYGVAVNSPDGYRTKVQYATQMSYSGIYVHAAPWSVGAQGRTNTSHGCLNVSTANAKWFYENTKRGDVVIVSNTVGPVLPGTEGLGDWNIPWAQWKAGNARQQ
Assay: Steady-state kinetics with nitrocefin (Ki,app)
Type: biochemical
Details: in parentheses in Table 3
# note: boundary value 30 maps to f; Ratio of fCss,avg to Ki,app, LDT2 below it maps to t

For orientation, consider the following solved cases.
sample-smiles	classification
CCO/N=C(\C(=O)N[C@@H]1C(=O)N2C(C(=O)[O-])=C(Sc3nc(-c4cc[n+](C)cc4)cs3)CS[C@H]12)c1nsc(N)n1	t
C[C@@H](O)[C@H]1C(=O)N2C(C(=O)O)=C(SCCN=CN)C[C@H]12	f

Now take the following compound into account.
*Q* Identify whether the compound C[C@@H](O)[C@H]1C(=O)N2C(C(=O)O)=C(S[C@H]3CC[S@@+]([O-])C3)S[C@H]12 records Ratio of fCss,avg to Ki,app, LDT2 below 30.
*A* t
